Assay: Inhibition of Dengue virus N-7 methyltransferase incubated for 15 mins followed by [methyl-3-H]-AdoMet addition and measured after 15 mins by microbeta counter method
QUANTITY NAME: IC50 (nM)
Quick reminder: number only, in nM, skip the unit.

In: I would be grateful if you could share the reported IC50 for Nc1ncnc2c1ncn2[C@@H]1O[C@H](C[C@@H](N)CC[C@H](N)C(=O)O)[C@@H](O)[C@H]1O .
Out: 30
